# System: 217524-143-R1-J4-PDC spheroids with HUVEC/MSC, viability
# procedure.details: Anticancer human tumor 217524-143-R1-J4-PDC patient-derived pancreatic carcinoma cell line growth inhibition [CLK]
# setup.conditions: second compound 1 µM; first compound 3.16 µM; stronger effect = lower value
Consider the following compounds; for each one, report its viability, T/C.
Answer with a number only, understood to be in %.

Query :: If you can, please state the reported viability, T/C value of CCCS(=O)(=O)Nc1ccc(F)c(C(=O)c2c[nH]c3ncc(-c4ccc(Cl)cc4)cc23)c1F + CN1CCN(c2cc(C(=O)Nc3cc4cc(-c5cnn(C)c5)ccc4cn3)ccn2)CC1 .
Result :: 2.09

Query :: Same again, this time with CC(Nc1ccc2c(c1)OCCn1cc(N3C(=O)OCC3C(F)F)nc1-2)C(N)=O (stereo not drawn) + CN1CCN(c2cc(C(=O)Nc3cc4cc(-c5cnn(C)c5)ccc4cn3)ccn2)CC1
Result :: 1.03

Query :: Same again, this time with C=CC(=O)N1CCN(c2nc(=O)n(-c3c(C)ccnc3C(C)C)c3nc(-c4c(O)cccc4F)c(F)cc23)C(C)C1 (stereo not drawn) + CN1CCN(c2cc(C(=O)Nc3cc4cc(-c5cnn(C)c5)ccc4cn3)ccn2)CC1
Result :: 2.93

====

# Tested on: 217524-143-R1-J4-PDC spheroids with HUVEC/MSC, viability
# procedure.details: Anticancer human tumor 217524-143-R1-J4-PDC cell line growth inhibition [CLK]; active means viability on the fitted dose curve at most 10% of control; inactive means the rest;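 further: spheroids exposed to agents for seven days before reading; 100% = DMSO vehicle control viability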
# setup.conditions: second compound 0.316 µM; first compound 0.316 µM
Write down one outcome, taken from active, inactive

Query :: Tell me the recorded outcome of this test for O=c1[nH]cc(F)c(=O)[nH]1 + CNC(=O)c1ccc(Nc2nc(OC3CCCC3)c3c(-c4ccc5nc(C)oc5c4)c[nH]c3n2)c(OC)c1 .
Result :: inactive

Query :: Same again, this time with COc1cccc2c1C(=O)c1c(O)c3c(c(O)c1C2=O)CC(O)(C(=O)CO)CC3OC1CC(N)C(O)C(C)O1 (stereo unspecified) + CN1CCN(c2cc(C(=O)Nc3cc4cc(-c5cnn(C)c5)ccc4cn3)ccn2)CC1
Result :: active

Query :: Same again, this time with Nc1ccccc1NC(=O)c1ccc(CNC(=O)OCc2cccnc2)cc1 + CN1CCN(c2cc(C(=O)Nc3cc4cc(-c5cnn(C)c5)ccc4cn3)ccn2)CC1
Result :: inactive

Query :: Same again, this time with CCc1c2c(nc3ccc(O)cc13)-c1cc3c(c(=O)n1C2)COC(=O)[C@]3(O)CC + CNC(=O)c1ccc(Nc2nc(OC3CCCC3)c3c(-c4ccc5nc(C)oc5c4)c[nH]c3n2)c(OC)c1
Result :: inactive

Query :: Same again, this time with O=c1[nH]cc(F)c(=O)[nH]1 + CN1CCN(c2cc(C(=O)Nc3cc4cc(-c5cnn(C)c5)ccc4cn3)ccn2)CC1
Result :: inactive

Query :: Same again, this time with CC1COCCN1c1cc(C2(S(C)(=N)=O)CC2)nc(-c2ccnc3[nH]ccc23)n1 (stereo unspecified) + CN1CCN(c2cc(C(=O)Nc3cc4cc(-c5cnn(C)c5)ccc4cn3)ccn2)CC1
Result :: inactive

====

# Tested on: 217524-143-R1-J4-PDC spheroids with HUVEC/MSC, viability
# procedure.details: Anticancer human tumor 217524-143-R1-J4-PDC cell line growth inhibition [CLK]; active means viability on the fitted dose curve at most 10% of control; inactive means the rest;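 further: spheroids exposed to agents for seven days before reading; 100% = DMSO vehicle control viability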
# setup.conditions: second compound 0.316 µM; first compound 3.16 µM
# Excerpt: A high-throughput screen of multi-cell type tumor spheroids was designed to identify active combinations of […] and targeted small molecules. Complex spheroids include a stromal component modeled by human endothelial cells (HUVEC) and fibroblasts modeled by human mesenchymal stem cells (MSCs). […] Compounds. […] If the clinical Cmax for an agent had not been determined, the highest concentration tested was 10 microM. […]
Write down one outcome, taken from YES = active, NO = inactive

Query :: Tell me the recorded outcome of this test for Nc1ccccc1NC(=O)c1ccc(CNC(=O)OCc2cccnc2)cc1 + CN1CCN(c2cc(C(=O)Nc3cc4cc(-c5cnn(C)c5)ccc4cn3)ccn2)CC1 .
Result :: NO

Query :: Same again, this time with O=C(c1cc(Cc2n[nH]c(=O)c3ccccc23)ccc1F)N1CCN(C(=O)C2CC2)CC1 + CN1CCN(c2cc(C(=O)Nc3cc4cc(-c5cnn(C)c5)ccc4cn3)ccn2)CC1
Result :: NO

Query :: Same again, this time with CCCS(=O)(=O)Nc1ccc(F)c(C(=O)c2c[nH]c3ncc(-c4ccc(Cl)cc4)cc23)c1F + CN1CCN(c2cc(C(=O)Nc3cc4cc(-c5cnn(C)c5)ccc4cn3)ccn2)CC1
Result :: NO

Query :: Same again, this time with CC1(C)CCC(CN2CCN(c3ccc(C(=O)NS(=O)(=O)c4ccc(NCC5CCOCC5)c([N+](=O)[O-])c4)c(Oc4cnc5[nH]ccc5c4)c3)CC2)=C(c2ccc(Cl)cc2)C1 + CN1CCN(c2cc(C(=O)Nc3cc4cc(-c5cnn(C)c5)ccc4cn3)ccn2)CC1
Result :: NO

Query :: Same again, this time with CC(CO)NC(=O)c1cc(-c2ccc(Cl)cc2)nn(-c2cnn(C)c2)c1=O (configuration not stated) + CN1CCN(c2cc(C(=O)Nc3cc4cc(-c5cnn(C)c5)ccc4cn3)ccn2)CC1
Result :: NO

Query :: Same again, this time with C=C(F)C(=O)N1CCN(c2nc(OCC3CCCN3C)nc3c2CCN(c2cccc4cccc(Cl)c24)C3)CC1CC#N (configuration not stated) + CNC(=O)c1ccc(Nc2nc(OC3CCCC3)c3c(-c4ccc5nc(C)oc5c4)c[nH]c3n2)c(OC)c1
Result :: NO

Query :: Same again, this time with C=CC(=O)N1CCN(c2nc(=O)n(-c3c(C)ccnc3C(C)C)c3nc(-c4c(O)cccc4F)c(F)cc23)C(C)C1 (configuration not stated) + CNC(=O)c1ccc(Nc2nc(OC3CCCC3)c3c(-c4ccc5nc(C)oc5c4)c[nH]c3n2)c(OC)c1
Result :: NO

Query :: Same again, this time with COc1ccc([C@@H](O)c2cc(-c3ncnc4cc(N5CCOCC5)ccc34)c(F)cc2Cl)nn1 + CN1CCN(c2cc(C(=O)Nc3cc4cc(-c5cnn(C)c5)ccc4cn3)ccn2)CC1
Result :: YES

Query :: Same again, this time with C=C(F)C(=O)N1CCN(c2nc(OCC3CCCN3C)nc3c2CCN(c2cccc4cccc(Cl)c24)C3)CC1CC#N (configuration not stated) + CN1CCN(c2cc(C(=O)Nc3cc4cc(-c5cnn(C)c5)ccc4cn3)ccn2)CC1
Result :: NO

Query :: Same again, this time with COC1C=CCC(C)C(C)S(=O)(=O)NC(=O)c2ccc3c(c2)N(CC2CCC21)CC1(CCCc2cc(Cl)ccc21)CO3 (configuration not stated) + CNC(=O)c1ccc(Nc2nc(OC3CCCC3)c3c(-c4ccc5nc(C)oc5c4)c[nH]c3n2)c(OC)c1
Result :: NO

Query :: Same again, this time with CC1COCCN1c1cc(C2(S(C)(=N)=O)CC2)nc(-c2ccnc3[nH]ccc23)n1 (configuration not stated) + CN1CCN(c2cc(C(=O)Nc3cc4cc(-c5cnn(C)c5)ccc4cn3)ccn2)CC1
Result :: NO

Query :: Same again, this time with CC1(C)CCC(CN2CCN(c3ccc(C(=O)NS(=O)(=O)c4ccc(NCC5CCOCC5)c([N+](=O)[O-])c4)c(Oc4cnc5[nH]ccc5c4)c3)CC2)=C(c2ccc(Cl)cc2)C1 + CNC(=O)c1ccc(Nc2nc(OC3CCCC3)c3c(-c4ccc5nc(C)oc5c4)c[nH]c3n2)c(OC)c1
Result :: NO

====

Consider the following compounds; for each one, report its viability, T/C.
# System: 217524-143-R1-J4-PDC spheroids with HUVEC/MSC, viability
# procedure.details: Anticancer human tumor 217524-143-R1-J4-PDC cell line growth inhibition [CLK];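 further: spheroids exposed to agents for seven days before reading; 100% = DMSO vehicle control viability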
# setup.conditions: second compound 0.1 µM; first compound 1 µM; stronger effect = lower value

Query :: If you can, please state the reported viability, T/C value of CC1COCCN1c1cc(C2(S(C)(=N)=O)CC2)nc(-c2ccnc3[nH]ccc23)n1 (stereo not given) + CNC(=O)c1ccc(Nc2nc(OC3CCCC3)c3c(-c4ccc5nc(C)oc5c4)c[nH]c3n2)c(OC)c1 .
Result :: 29.2%

Query :: Same again, this time with COc1c(OCCCN2CCOCC2)ccc2c3n(c(=NC(=O)c4cnc(N)nc4)nc12)CCN3 + CN1CCN(c2cc(C(=O)Nc3cc4cc(-c5cnn(C)c5)ccc4cn3)ccn2)CC1
Result :: 2.72%

Query :: Same again, this time with CC1(C)CCC(CN2CCN(c3ccc(C(=O)NS(=O)(=O)c4ccc(NCC5CCOCC5)c([N+](=O)[O-])c4)c(Oc4cnc5[nH]ccc5c4)c3)CC2)=C(c2ccc(Cl)cc2)C1 + CN1CCN(c2cc(C(=O)Nc3cc4cc(-c5cnn(C)c5)ccc4cn3)ccn2)CC1
Result :: 65.7%

Query :: Same again, this time with O=c1[nH]cc(F)c(=O)[nH]1 + CN1CCN(c2cc(C(=O)Nc3cc4cc(-c5cnn(C)c5)ccc4cn3)ccn2)CC1
Result :: 32.4%

Query :: Same again, this time with COc1cccc2c1C(=O)c1c(O)c3c(c(O)c1C2=O)CC(O)(C(=O)CO)CC3OC1CC(N)C(O)C(C)O1 (stereo not given) + CN1CCN(c2cc(C(=O)Nc3cc4cc(-c5cnn(C)c5)ccc4cn3)ccn2)CC1
Result :: 11.9%
